Every entry's value here was drawn from paper PMC8809517.

Kindly state Kd for each of the entries shown.
- Experimental System: T1, GFP-9S library array, motif 4 ND N98W;D124M (synthetic construct, N98W;D124M)
- T1 chain: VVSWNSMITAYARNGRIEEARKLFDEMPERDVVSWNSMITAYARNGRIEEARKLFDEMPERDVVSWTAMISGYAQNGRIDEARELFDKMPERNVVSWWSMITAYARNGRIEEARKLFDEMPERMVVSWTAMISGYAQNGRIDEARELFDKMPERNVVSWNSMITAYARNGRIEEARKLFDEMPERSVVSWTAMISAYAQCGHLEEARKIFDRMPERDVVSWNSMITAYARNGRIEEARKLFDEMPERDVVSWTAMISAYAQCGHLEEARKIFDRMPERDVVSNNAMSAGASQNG
- Assay Name: high-throughput RNA pulldown from lysate on Ni-NTA beads; HRP: 50 mM Tris pH 8, 150 mM NaCl, 1 mM beta-mercaptoethanol, 50 ug/ml BSA, 3 ug/ml yeast RNA, 0.5% heparin; ITC and FP: Tris pH 8, 200 mM KCl, 5% glycerol; MST: 50 mM Tris pH 8, 200 mM NaCl, 1 mM DTT, BSA, heparin, 0.05% Tween 20
- Measurement Conditions: tags: N-terminal His-eGFP; label: 5' IRDye 800CW
One number for each entry, in nM.

I'm hoping you can list Kd for every binder here, please.
1. AUUAUACGUGA (ssRNA) [IR-rpoA-U]
2. AUUAAACGUGA (ssRNA) [IR-rpoA-A]

Result:
1: 175; 2: 235
